What Myelocytes was measured for each of the following?
tested on: blood of patients with AML; experiment: Hemogram of blood of patients with AML after exposure (Example 14, Table 11); type: cell-based; conditions: AML (Table 11); 10 µg/ml; 3 hours, 37.0°C

Worked examples, 3 compounds total:
{"COMPOUND": "Nc1ccn([C@@H]2O[C@H](CO)[C@@H](O)[C@@H]2O)c(=O)n1 [Cytosar, cytarabine, reference compound]", "Myelocytes": "1,8±0,4%"}
{"COMPOUND": "COc1cc2c(cc1OC)C(c1cc3c(cc1Br)OCO3)NCC2 (stereo not shown)", "Myelocytes": "0,9±0,3%"}
{"COMPOUND": "COc1cc2c(cc1OC)C(c1cc3c(cc1Cl)OCO3)NCC2 (stereo not shown)", "Myelocytes": "0,4±0,1%"}

Switching to the query record.
Find the measured Myelocytes of COc1cccc2c1C(=O)c1c(O)c3c(c(O)c1C2=O)C[C@@](O)(C(=O)CO)C[C@@H]3O[C@H]1C[C@H](N)[C@H](O)[C@H](C)O1 [Doxorubicin, doxorubicin, reference compound] and report it.
0,0±0,0%

----------
tested on: Rat liver hepatocytes; assay: MTT cytotoxicity on hepatocytes; type: cell-based; settings: Rattus norvegicus, Hepatocyte, 24 hours
OBSERVATION_TYPE: IC50

{"MOLECULE": "COc1cc2c(cc1OC)C(c1cc3c(cc1Br)OCO3)NCC2 (centres unmarked)", "IC50": "> 100 µM"}

Here's the next entry for you.
Quickly give me recorded IC50 for COc1cc2c(cc1OC)C(c1cc3c(cc1Cl)OCO3)NCC2 (centres unmarked)
> 100 µM

----------
system: blood of patients with ALL; assay: Hemogram of blood of patients with ALL after exposure; type: cell-based; conditions: 10 µg/ml, 3 hours, 37.0°C
OBSERVATION_TYPE: Monocytes

{"COMPOUND": "COc1cc2c(cc1OC)C(c1cc3c(cc1Br)OCO3)NCC2 (stereo not shown) [Compound F1]", "Monocytes": "1,8±0,4%"}
{"COMPOUND": "COc1cccc2c1C(=O)c1c(O)c3c(c(O)c1C2=O)C[C@@](O)(C(=O)CO)C[C@@H]3O[C@H]1C[C@H](N)[C@H](O)[C@H](C)O1 [Doxorubicin, doxorubicin, reference compound]", "Monocytes": "1.9±0,6%"}
{"COMPOUND": "Nc1ccn([C@@H]2O[C@H](CO)[C@@H](O)[C@@H]2O)c(=O)n1 [Cytosar, cytarabine, reference compound]", "Monocytes": "2,2±0,4%"}

Next compound, Monocytes to be filled in.
# return recorded Monocytes for entry COc1cc2c(cc1OC)C(c1cc3c(cc1Cl)OCO3)NCC2 (stereo not shown) [Compound F2]
1,1±0,3%

----------
test system: fibroblasts; assay: MTT cytotoxicity on fibroblasts; type: cell-based; settings: Fibroblast, 24 hours
pIC50: −log10 of the molar value.
Please respond with reported pIC50 for every item in the list.

Dear colleague, could you please provide pIC50 for the compounds listed below?
1. COc1cc2c(cc1OC)C(c1cc3c(cc1Br)OCO3)NCC2 (centres unmarked) [Compound F1]
2. COc1cc2c(cc1OC)C(c1cc3c(cc1Cl)OCO3)NCC2 (centres unmarked) [Compound F2]

< 4.00
< 4.00

----------
Would you mind telling me the reported Lymphocytes of each entry?
system: blood of patients with ALL; test: Hemogram of blood of patients with ALL after exposure; assay type: cell-based; details: 10 µg/ml, 3 hours, 37.0°C

// known answers, use as guide
{"COMPOUND": "COc1cccc2c1C(=O)c1c(O)c3c(c(O)c1C2=O)C[C@@](O)(C(=O)CO)C[C@@H]3O[C@H]1C[C@H](N)[C@H](O)[C@H](C)O1 [Doxorubicin, doxorubicin, reference compound]", "TARGET_OF_ASSAY": "blood of patients with ALL", "TEST_VALUE": "9,9±1,3%"}
{"COMPOUND": "COc1cc2c(cc1OC)C(c1cc3c(cc1Br)OCO3)NCC2 (stereo not shown) [Compound F1]", "TARGET_OF_ASSAY": "blood of patients with ALL", "TEST_VALUE": "12,6±1,1 %"}
{"COMPOUND": "Nc1ccn([C@@H]2O[C@H](CO)[C@@H](O)[C@@H]2O)c(=O)n1 [Cytosar, cytarabine, reference compound]", "TARGET_OF_ASSAY": "blood of patients with ALL", "TEST_VALUE": "11,4±0,8%"}

Look up Lymphocytes of COc1cc2c(cc1OC)C(c1cc3c(cc1Cl)OCO3)NCC2 (stereo not shown) [Compound F2] and report it.
13,4±1,3%

These entries and their values trace back to patent EP4506003A1.
